# experimentalSystem: T1, human adenosine A2A receptor (A2aR) (human, UniProt P29274 1-412)
# T1 construct: Assays used HEK293 cells stably overexpressing human A2aR (BPS Bioscience 79381), human A2aR-expressing CHO cells, or endogenous A2aR on human PBMC; also called human A2aR; hA2aR
# T1 sequence (P29274 whole entry): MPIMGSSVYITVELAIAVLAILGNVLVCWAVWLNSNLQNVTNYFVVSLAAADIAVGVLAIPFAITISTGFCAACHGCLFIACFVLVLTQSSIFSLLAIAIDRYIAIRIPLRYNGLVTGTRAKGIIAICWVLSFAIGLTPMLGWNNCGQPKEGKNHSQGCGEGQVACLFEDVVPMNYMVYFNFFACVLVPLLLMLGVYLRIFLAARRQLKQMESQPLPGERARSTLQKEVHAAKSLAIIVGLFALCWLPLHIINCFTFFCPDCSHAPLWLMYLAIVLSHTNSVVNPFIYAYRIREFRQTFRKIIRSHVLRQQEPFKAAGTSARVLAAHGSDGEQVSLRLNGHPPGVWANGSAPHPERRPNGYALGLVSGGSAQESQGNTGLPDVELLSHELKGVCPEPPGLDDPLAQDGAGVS
# measurementNotes: flow cytometry, HEK293-hA2aR cells, supernatant 1 ug/ml
Assign 1 to entries whose MFI meets or exceeds 200 MFI; assign -1 to the rest.

binder | labelValue
Hu1B5-H5/Hu1B5-L3 (antibody, human IgG1, V domains shown, Human IgG1 FES (L234F, L235E, P331S) and human Ig kappa constant domains) VH: EVQLVQSGAEVKKPGASVKVSCKTSGFTFTRFWMNWVRQAPGQGLEWIGRIDPYDSETQYAHKFWDRATLTVDKSSSTVYMELSSLRSEDTAVYYCGRSLYGKGDYWGQGTTVTVSS VL: DVVMTQSPLSLPVTLGQPASISCRSSQSIVHSNGNTYLEWYQQRPGQSPRLLIYKVSNRFSGVPDRFSGSGSGTDFTLKISRVEAEDVGVYYCFQGSHVPLTFGGGTKVEIK | 1
Hu1B5-H2.1/Hu1B5-L5 (antibody, human IgG1, V domains shown, Human IgG1 FES (L234F, L235E, P331S) and human Ig kappa constant domains) VH: EVQLVQSGAEVKKPGASVKVSCKTSGFTFTRFWMNWVRQAPGQGLEWIGRIDPYDSETQYNHKFWDRVTMTVDTSTSTVYMELSSLRSEDTAVYYCGRSLYGKGDYWGQGTTVTVSS VL: DIVMTQSPDSLAVSLGERATINCRSSQSIVHSNGNTYLEWYQQKPGQPPKLLIYKVSNRFSGVPDRFSGSGSGTDFTLTISSLQAEDVAVYYCFQGSHVPLTFGGGTKVEIK | 1
Hu1B5-H1/Hu1B5-L1 (antibody, human IgG1, V domains shown, Human IgG1 FES (L234F, L235E, P331S) and human Ig kappa constant domains) VH: QVQLVQSGAEVKKPGASVKVSCKASGFTFTRFWMNWVRQAPGQGLEWMGRIDPYDSETQYNHKFWDRVTMTRDTSTSTVYMELSSLRSEDTAVYYCGRSLYGKGDYWGQGTTVTVSS VL: DVVMTQSPLSLPVTLGQPASISCRSSQSIVHSNGNTYLEWFQQRPGQSPRRLIYKVSNRFSGVPDRFSGSGSGTDFTLKISRVEAEDVGVYYCFQGSHVPLTFGGGTKVEIK | -1
Hu1B5-H3/Hu1B5-L4 (antibody, human IgG1, V domains shown, Human IgG1 FES (L234F, L235E, P331S) and human Ig kappa constant domains) VH: EVQLVQSGAEVKKPGASVKVSCKTSGFTFTRFWMNWVRQAPGQGLEWIGRIDPYDSETQYNHKFWDRATLTVDTSSSTVYMELSSLRSEDTAVYYCGRSLYGKGDYWGQGTTVTVSS VL: DVVMTQSPLSLPVTPGEPASISCRSSQSIVHSNGNTYLEWYLQKPGQSPQLLIYKVSNRFSGVPDRFSGSGSGTDFTLKISRVEAEDVGVYYCFQGSHVPLTFGGGTKVEIK | 1

Q) Entry Hu1B5-H2/Hu1B5-L2 (antibody, human IgG1, V domains shown, Human IgG1 FES (L234F, L235E, P331S) and human Ig kappa constant domains) VH: EVQLVQSGAEVKKPGASVKVSCKTSGFTFTRFWMNWVRQAPGQGLEWMGRIDPYDSETQYNHKFWDRVTMTVDTSTSTVYMELSSLRSEDTAVYYCGRSLYGKGDYWGQGTTVTVSS VL: DVVMTQSPLSLPVTLGQPASISCRSSQSIVHSNGNTYLEWYQQRPGQSPRRLIYKVSNRFSGVPDRFSGSGSGTDFTLKISRVEAEDVGVYYCFQGSHVPLTFGGGTKVEIK : is its MFI no less than 200 MFI?
A) 1
